This collection of values is drawn from patent US20240376190A1.

target: T1, FLAG-tagged human latent TGF-beta 1 (human, UniProt P01137 34-390); experiment: SPR (BIACORE), antibody captured on anti-human Fc, antigen as analyte, pH 7.4
T1 construct: Co-expressed with human furin, purified on anti-FLAG resin and by gel filtration; also called human latent TGF-beta 1 (SLC); hSLC
Recorded measurements of kon, one per entry
I only need the number, in M⁻¹ s⁻¹, no unit after it.

binder="hT0947AE23-SG181 (antibody, human IgG1, kappa, V domains shown, Human IgG1; Heavy chain = VH + CH, light chain = VL + CL) VH: QVQLVESGGGVVQPGRSLRLSCAASGFHFSREAMNWIRQPPGKGLEWIGYIYTSGTTYRANWARGRFTISRDNSKNTLYLQMNSLRAEDTAVYYCARGTHLFGHHYWVMHSWGQGTLVTVSS VL: DIQMTQSPSSLSASVGDRVTITCQASQSISTYLAWYQQKPGQPPKLLIYAASTLEYGVPSRFSGSGSGTDFTLTISSLQPEDFATYYCQSYSDGDSVVFGQGTKVEIKR" value=333000
binder="hT0947AE22-SG181 (antibody, human IgG1, kappa, V domains shown, Human IgG1; Heavy chain = VH + CH, light chain = VL + CL) VH: QVQLVESGGGVVQPGRSLRLSCAASGFHFSREAMNWIRQPPGKGLEWIGYIYTSGTTYRANWARGRFTISRDNSKNTLYLQMNSLRAEDTAVYYCARGWHIFGHHYWVMHFWGQGTLVTVSS VL: DIQMTQSPSSLSASVGDRVTITCQASQSISTYLAWYQQKPGQPPKLLIYAASTLESGVPSRFSGSGSGTDFTLTISSLQPEDFATYYCQSYSDGDSVIFGQGTKVEIKR" value=344000
binder="hT0947AE24-SG181 (antibody, human IgG1, kappa, V domains shown, Human IgG1; Heavy chain = VH + CH, light chain = VL + CL) VH: QVQLVESGGGVVQPGRSLRLSCAASGFHFSSEAMNWIRQPPGKGLEWIGYIYTSGTTYRANWARGRFTISRDNSKNTLYLQMNSLRAEDTAVYYCARGWHIFGHHYWVMHFWGQGTLVTVSS VL: DIQMTQSPSSLSASVGDRVTITCQASQSISTYLAWYQQKPGQPPKLLIYAASTLEWGVPSRFSGSGSGTDFTLTISSLQPEDFATYYCQSYSDGDSVGFGQGTKVEIKR" value=393000
binder="hT0947AE25-SG181 (antibody, human IgG1, kappa, V domains shown, Human IgG1; Heavy chain = VH + CH, light chain = VL + CL) VH: QVQLVESGGGVVQPGRSLRLSCAASGFHFSNEAMNWIRQPPGKGLEWIGYIYTSGTTYRSNWARGRFTISRDNSKNTLYLQMNSLRAEDTAVYYCARGWHIFGHQYWVMHFWGQGTLVTVSS VL: DIQMTQSPSSLSASVGDRVTITCQASQSISTYEAWYQQKPGQPPKLLIYAASTLESGVPSRFSGSGSGTDFTLTISSLQPEDFATYYCQSYSDGDSVGFGQGTKVEIKR" value=391000

Entry hT0947AE26-SG181 (antibody, human IgG1, kappa, V domains shown, Human IgG1; Heavy chain = VH + CH, light chain = VL + CL) VH: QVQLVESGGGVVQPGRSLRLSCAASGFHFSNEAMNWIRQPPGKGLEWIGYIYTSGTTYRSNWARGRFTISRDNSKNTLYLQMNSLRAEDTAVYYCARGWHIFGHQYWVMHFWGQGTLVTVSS VL: DIQMTQSPSSLSASVGDRVTITCQASQSISTYEAWYQQKPGQPPKLLIYAASTLESGVPSRFSGSGSGTDFTLTISSLQPEDFATYYCQSYSDGDSVKFGQGTKVEIKR has what kon?
361000
